Test system: NCI-H1975
assay_comment: Tumor cell proliferation inhibition (CellTiter-Meiluncell Luminescent Cell Viability Assay), NCI-H1975
assay_context: Homo sapiens, NCI-H1975, 96 h, read-out: inhibitory activity (IC50, nM) against tumor cells proliferation, H1975
measurement_label: IC50

Sample records with IC50:
{"compound": "O=C1CCC(N2Cc3cc(CN4CCC(c5c[nH]c6cc(F)ccc56)CC4)ccc3C2=O)C(=O)N1 (stereo not shown) [GT-04713]", "system": "NCI-H1975", "IC50": "5 to 10 nM"}
{"compound": "O=C1CCC(N2Cc3cc(CN4CC=C(c5cccc(F)c5Cl)CC4)ccc3C2=O)C(=O)N1 (stereo not shown) [GT-04554]", "system": "NCI-H1975", "IC50": "1 to 5 nM"}
{"compound": "O=C1CCC(N2Cc3cc(CN4CCN(c5cccc(Cl)n5)CC4)ccc3C2=O)C(=O)N1 (stereo not shown) [GT-04497]", "system": "NCI-H1975", "IC50": "10 to 50 nM"}
{"compound": "O=C1CCC(N2Cc3cc(CN4CCN(c5cc(Cl)cc(Cl)c5)CC4)ccc3C2=O)C(=O)N1 (stereo not shown) [GT-04614]", "system": "NCI-H1975", "IC50": "10 to 50 nM"}

Report IC50 for O=C1CCC(N2Cc3cc(CN4CCC(c5cccc(F)c5Cl)CC4)ccc3C2=O)C(=O)N1 (stereo not shown) [GT-04553] 10 to 50 nM

Tell me IC50 reported for O=C1CCC(N2Cc3cc(CN4CCN(c5cc(Cl)ccc5Cl)CC4)ccc3C2=O)C(=O)N1 (stereo not shown) [GT-04487] 50 to 100 nM

State its IC50 for this compound: O=C1CCC(N2Cc3cc(CN4CC=C(c5c[nH]c6cc(F)ccc56)CC4)ccc3C2=O)C(=O)N1 (stereo not shown) [GT-04722] 100 to 500 nM

---

system: human Cereblon WT GST-tagged protein (Homo sapiens)
Construct: purchased CISBIO 64BDCRBNPEH
Sequence (Q96SW2 whole entry): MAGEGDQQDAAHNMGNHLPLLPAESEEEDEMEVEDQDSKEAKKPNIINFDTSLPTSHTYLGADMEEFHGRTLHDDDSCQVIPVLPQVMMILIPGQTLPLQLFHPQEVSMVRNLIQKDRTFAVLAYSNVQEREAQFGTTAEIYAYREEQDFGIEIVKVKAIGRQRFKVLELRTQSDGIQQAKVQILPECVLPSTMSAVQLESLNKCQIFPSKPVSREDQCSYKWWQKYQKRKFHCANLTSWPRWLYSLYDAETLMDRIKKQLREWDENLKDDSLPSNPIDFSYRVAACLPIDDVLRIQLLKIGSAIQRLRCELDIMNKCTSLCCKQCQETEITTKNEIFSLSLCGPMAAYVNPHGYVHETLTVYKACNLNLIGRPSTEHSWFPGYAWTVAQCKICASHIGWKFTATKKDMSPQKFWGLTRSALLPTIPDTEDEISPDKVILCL
assay_comment: CRBN-binding affinity by HTRF (CEREBLON BINDING kit)
assay_context: HTRF inhibitory activity, CEREBLON BINDING kit; read-out: HTRF IC50
pIC50: −log10 of the molar value.
measurement_label: pIC50

{"compound": "O=C1CCC(N2Cc3cc(CN4CCN(c5ccnc(Cl)c5F)CC4)ccc3C2=O)C(=O)N1 (stereo not shown)", "pIC50": "6.00 to 6.30"}
{"compound": "O=C1CCC(N2Cc3cc(CN4CCN(c5ccc(F)cc5)CC4)ccc3C2=O)C(=O)N1 (stereo not shown)", "pIC50": "5.82 to 6.00"}
{"compound": "O=C1CCC(N2Cc3cc(CN4CCN(c5nc(N6CCCC6)nc6c5SCC6)CC4)ccc3C2=O)C(=O)N1 (stereo not shown)", "pIC50": "> 6.30"}

Alright, here's another compound for you.
State the measured pIC50 (human Cereblon WT GST-tagged protein (Homo sapiens)) of O=C1CCC(N2Cc3cc(CN4CCCN(c5cccc(Cl)c5Cl)CC4)ccc3C2=O)C(=O)N1 (stereo not shown) 6.00 to 6.30

---

Form field: IC50 (one value per entry).
Test system: NCI-H1975
assay_comment: Tumor cell proliferation inhibition (CellTiter-Meiluncell Luminescent Cell Viability Assay), NCI-H1975
assay_context: Homo sapiens, NCI-H1975, 96 h, read-out: inhibitory activity (IC50, nM) against tumor cells proliferation, H1975

{"compound": "O=C1CCC(N2Cc3cc(CN4CCC(N5CCCc6cc(F)ccc65)CC4)ccc3C2=O)C(=O)N1 (stereo not drawn)", "system": "NCI-H1975", "IC50": "500 to 1000 nM"}

Give IC50 for O=C1CCC(N2Cc3cc(CN4CCC(c5ccccc5Cl)CC4)ccc3C2=O)C(=O)N1 (stereo not drawn) 100 to 500 nM

Entry O=C1CCC(N2Cc3cc(CN4CCN(c5cc(Cl)c(Cl)cn5)CC4)ccc3C2=O)C(=O)N1 (stereo not drawn) needs its IC50 filled in; supply it. 50 to 100 nM

Give the reported IC50 for this compound. Cc1ccc(N2CCN(Cc3ccc4c(c3)CN(C3CCC(=O)NC3=O)C4=O)CC2)cc1 (stereo not drawn) 100 to 500 nM

Look up and report measured IC50 for this entry: Cc1ccc(Cl)cc1N1CCN(Cc2ccc3c(c2)CN(C2CCC(=O)NC2=O)C3=O)CC1 (stereo not drawn) 500 to 1000 nM

Note down IC50 recorded for O=C1CCC(N2Cc3cc(CN4CCC(c5noc6cc(F)ccc56)CC4)c(F)cc3C2=O)C(=O)N1 (stereo not drawn) 10 to 50 nM

---

Tested on: NCI-H1975
assay_comment: Tumor cell proliferation inhibition (CellTiter-Meiluncell Luminescent Cell Viability Assay), NCI-H1975
assay_context: Homo sapiens, NCI-H1975, read-out: inhibitory activity (IC50, nM) against tumor cells proliferation, H1975
measurement_label: IC50

{"compound": "Nc1cccc2c1C(=O)N(C1CCC(=O)NC1=O)C2=O (stereo not shown) [pomalidomide, reference compound]", "IC50": "> 10000 nM"}
{"compound": "CC(C)c1cc2c(C3=CCN(Cc4ccc5c(c4)CN(C4CCC(=O)NC4=O)C5=O)CC3)ncnc2s1 (stereo not shown) [GT-04935]", "IC50": "1 to 5 nM"}
{"compound": "O=C1CCC(N2Cc3cc(CN4C5CCC4CN(c4cccc(Cl)c4Cl)C5)ccc3C2=O)C(=O)N1 (stereo not shown) [GT-04855]", "IC50": "50 to 100 nM"}

Now let's try a different one.
Find the measured IC50 of O=C1CCC(N2Cc3cc(CN4CCC(n5cnc6cc(F)ccc65)CC4)ccc3C2=O)C(=O)N1 (stereo not shown) [GT-04905] and report it. 100 to 500 nM

---

Test system: MGC803
assay_comment: Tumor cell proliferation inhibition (CellTiter-Meiluncell Luminescent Cell Viability Assay), MGC803
assay_context: Homo sapiens, MGC-803, 96 h, read-out: inhibitory activity (IC50, nM) against tumor cells proliferation, MGC803
measurement_label: IC50

# annotated cases, reported IC50 shown
{"compound": "O=C1CCC(N2Cc3cc(CN4CCN(c5ccc(F)cc5)CC4)ccc3C2=O)C(=O)N1 (stereo not drawn) [GT-04453]", "IC50": "100 to 500 nM"}
{"compound": "O=C1CCC(N2Cc3cc(CN4CC=C(c5cccs5)CC4)ccc3C2=O)C(=O)N1 (stereo not drawn) [GT-04494]", "IC50": "10 to 50 nM"}
{"compound": "O=C1CCC(N2Cc3cc(CN4CCN(c5cccc(C(F)(F)F)n5)CC4)ccc3C2=O)C(=O)N1 (stereo not drawn) [GT-04432]", "IC50": "100 to 500 nM"}
{"compound": "Cc1cscc1C1=CCN(Cc2ccc3c(c2)CN(C2CCC(=O)NC2=O)C3=O)CC1 (stereo not drawn) [GT-04503]", "IC50": "5 to 10 nM"}
{"compound": "O=C1CCC(N2Cc3cc(CN4CCC(c5cccc(Br)c5)CC4)ccc3C2=O)C(=O)N1 (stereo not drawn) [GT-04466]", "IC50": "50 to 100 nM"}

Provide only the value of recorded IC50 for O=C1CCC(N2Cc3cc(CN4CCC(c5ccccc5F)CC4)ccc3C2=O)C(=O)N1 (stereo not drawn) [GT-04470] 100 to 500 nM

Return reported IC50. Input compound: Cc1ccc(Sc2ccccc2N2CCN(Cc3ccc4c(c3)CN(C3CCC(=O)NC3=O)C4=O)CC2)c(C)c1 (stereo not drawn) [GT-04203] 100 to 500 nM

State, in one line, measured IC50 of COc1cccc(N2CCN(Cc3ccc4c(c3)CN(C3CCC(=O)NC3=O)C4=O)CC2)c1 (stereo not drawn) [GT-04448] 500 to 1000 nM

Please give the documented IC50 of Cc1ccsc1C1=CCN(Cc2ccc3c(c2)CN(C2CCC(=O)NC2=O)C3=O)CC1 (stereo not drawn) [GT-04495] 10 to 50 nM

Supply measured IC50 of O=C1CCC(N2Cc3cc(CN4CCN(c5ccccc5Cl)CC4)ccc3C2=O)C(=O)N1 (stereo not drawn) [GT-04454] in your reply. 100 to 500 nM

Quick one: give measured IC50 for O=C1CCC(N2Cc3cc(CN4CCN(c5ccc(Cl)cc5)CC4)ccc3C2=O)C(=O)N1 (stereo not drawn) [GT-04455] 50 to 100 nM

Return the recorded IC50 value; entry: O=C1CCC(N2Cc3cc(CN4CCN(c5ccccc5)CC4)ccc3C2=O)C(=O)N1 (stereo not drawn) [GT-04446] 100 to 500 nM

Supply IC50 value. Item: Cc1cccc(N2CCN(Cc3ccc4c(c3)CN(C3CCC(=O)NC3=O)C4=O)CC2)c1 (stereo not drawn) [GT-04462] 10 to 50 nM

State, in one line, measured IC50 of O=C1CCC(N2Cc3cc(CN4CCN(c5ccc(Cl)c(Cl)c5)CC4)ccc3C2=O)C(=O)N1 (stereo not drawn) [GT-04437] 50 to 100 nM

Quickly give me recorded IC50 for O=C1CCC(N2Cc3cc(CN4CCN(c5ccc(Br)cc5)CC4)ccc3C2=O)C(=O)N1 (stereo not drawn) 100 to 500 nM

Return value of IC50 for input O=C1CCC(N2Cc3cc(CN4CCC(c5ccccc5Cl)CC4)ccc3C2=O)C(=O)N1 (stereo not drawn) [GT-04468] , no commentary. 500 to 1000 nM

Please give the documented IC50 of Cc1ccc(N2CCN(Cc3ccc4c(c3)CN(C3CCC(=O)NC3=O)C4=O)CC2)cc1 (stereo not drawn) [GT-04463] 100 to 500 nM

Item O=C1CCC(N2Cc3cc(CN4CCN(c5ccccc5Br)CC4)ccc3C2=O)C(=O)N1 (stereo not drawn) [GT-04456] : provide IC50 100 to 500 nM

// Input: O=C1CCC(N2Cc3cc(CN4CCC(c5ccccc5)CC4)ccc3C2=O)C(=O)N1 (stereo not drawn) [GT-04465] . Output its IC50 only. 100 to 500 nM

Identify the reported IC50 for the following entry. O=C1CCC(N2Cc3cc(CN4CCC(c5cccc(C(F)(F)F)c5)CC4)ccc3C2=O)C(=O)N1 (stereo not drawn) [GT-04472] 50 to 100 nM

State, in one line, measured IC50 of Cc1ccc(Cl)cc1N1CCN(Cc2ccc3c(c2)CN(C2CCC(=O)NC2=O)C3=O)CC1 (stereo not drawn) [GT-04440] 500 to 1000 nM

For the compound O=C1CCC(N2Cc3cc(CN4CCC(c5ccc(Cl)cc5)CC4)ccc3C2=O)C(=O)N1 (stereo not drawn) [GT-04469] , report IC50. 500 to 1000 nM

Supply reported IC50 belonging to this compound: O=C1CCC(N2Cc3cc(CN4CCN(c5cc(Cl)ccc5Cl)CC4)ccc3C2=O)C(=O)N1 (stereo not drawn) [GT-04487] 50 to 100 nM
